src = ChEMBL document CHEMBL5579841

- method.notes: Permeability of compound by PAMPA
- Format: ADME
- recorded.conditions: read-out: permeability
Listed compounds paired with reported Papp
metric.name: Papp (×10⁻⁶ cm/s)

INSERT INTO assay_data (compound, metric_name, numeric_readout) VALUES
  ('CCCCC(NC(=O)c1[nH]c2c(c1C)C(=O)CC(C)(C)C2)C(=O)Nc1ccc(OC2CCN(C)CC2)cc1 (racemic)', 'Papp', 5.9),
  ('CCCCC(NC(=O)c1[nH]c2c(c1C)C(=O)CC(C)(C)C2)C(=O)Nc1ccc(OC2CCN(C)CC2)nc1 (racemic)', 'Papp', 4.9),
  ('CCCCC(NC(=O)c1[nH]c2c(c1C)C(=O)CC(C)(C)C2)C(=O)Nc1ccc(OCCNC)nc1 (racemic)', 'Papp', 0.07),
  ('CCCCC(NC(=O)c1[nH]c2c(c1C)C(=O)CC(C)(C)C2)C(=O)Nc1ccc(OCCN)nc1 (racemic)', 'Papp', 0.4),
  ('CCCCC(NC(=O)c1[nH]c2c(c1C)C(=O)CC(C)(C)C2)C(=O)NCc1ccc(CN(C)C)cc1 (racemic)', 'Papp', 9.5),
  ('CCCC[C@H](NC(=O)c1[nH]c2c(c1C)C(=O)CC(C)(C)C2)C(=O)Nc1ccccc1', 'Papp', 35.9),
  ('CCCC[C@H](NC(=O)c1[nH]c2c(c1C)C(=O)CC(C)(C)C2)C(=O)Nc1ccc(OC2CCN(C)CC2)nc1', 'Papp', 8.1);

###

- method.notes: Metabolic stability in human liver microsomes assessed as compound remaining measured after 30 mins
- Type: ADME, Microsome
- recorded.conditions: read-out: Stability
metric.name: remaining at 0.5 h (%)

INSERT INTO assay_data (compound_string, metric_name, numeric_readout) VALUES
  ('CCCC[C@H](NC(=O)c1[nH]c2c(c1C)C(=O)CC(C)(C)C2)C(=O)Nc1ccc(OC2CCN(C)CC2)cc1', 'remaining at 0.5 h', 57),
  ('CCCC[C@H](NC(=O)c1[nH]c2c(c1C)C(=O)CC(C)(C)C2)C(=O)NCc1ccc(CN(C)C)cc1', 'remaining at 0.5 h', 52),
  ('CCCC[C@H](NC(=O)c1[nH]c2c(c1C)C(=O)CC(C)(C)C2)C(=O)Nc1ccccc1', 'remaining at 0.5 h', 22),
  ('CCCC[C@H](NC(=O)c1[nH]c2c(c1C)C(=O)CC(C)(C)C2)C(=O)Nc1ccc(OC2CCN(C)CC2)nc1', 'remaining at 0.5 h', 80);

###

- method.notes: Metabolic stability in human liver microsomes assessed as compound remaining measured after 60 mins
- Format: ADME, Microsome
- recorded.conditions: read-out: Stability
Recorded measurements of remaining at 1 h, one per entry
metric.name: remaining at 1 h (%)

INSERT INTO assay_data (compound_string, numeric_readout) VALUES
  ('CCCC[C@H](NC(=O)c1[nH]c2c(c1C)C(=O)CC(C)(C)C2)C(=O)NCc1ccc(CN(C)C)cc1', 30),
  ('CCCC[C@H](NC(=O)c1[nH]c2c(c1C)C(=O)CC(C)(C)C2)C(=O)Nc1ccc(OC2CCN(C)CC2)cc1', 37),
  ('CCCC[C@H](NC(=O)c1[nH]c2c(c1C)C(=O)CC(C)(C)C2)C(=O)Nc1ccccc1', 10),
  ('CCCC[C@H](NC(=O)c1[nH]c2c(c1C)C(=O)CC(C)(C)C2)C(=O)Nc1ccc(OC2CCN(C)CC2)nc1', 62);
